Test system: K98450-129-R-PDC multicell spheroids, viability
Assay: Anticancer human tumor K98450-129-R-PDC patient-derived colon adenocarcinoma cell line growth inhibition [PI3K]
Conditions: second compound 0.00316 µM; first compound 0.0316 µM; stronger effect = lower value
Answer each item with its documented viability, T/C.

Worked set:
q: Provide measured viability, T/C value, entry: CCCS(=O)(=O)Nc1ccc(F)c(C(=O)c2c[nH]c3ncc(-c4ccc(Cl)cc4)cc23)c1F + COc1c(OCCCN2CCOCC2)ccc2c3n(c(=NC(=O)c4cnc(N)nc4)nc12)CCN3
a: 107%

q: Provide measured viability, T/C value, entry: Cn1ncc(Cl)c1-c1cc(C(=O)NC(CN)Cc2cccc(F)c2)sc1Cl (stereo unspecified) + CC(Nc1ccc2c(c1)OCCn1cc(N3C(=O)OCC3C(F)F)nc1-2)C(N)=O
a: 106%

q: Provide measured viability, T/C value, entry: CC(C)NCC(C(=O)N1CCN(c2ncnc3c2C(C)CC3O)CC1)c1ccc(Cl)cc1 (stereo unspecified) + CC(Nc1ccc2c(c1)OCCn1cc(N3C(=O)OCC3C(F)F)nc1-2)C(N)=O
a: 111%

q: Provide measured viability, T/C value, entry: CC(C)NCC(C(=O)N1CCN(c2ncnc3c2C(C)CC3O)CC1)c1ccc(Cl)cc1 (stereo unspecified) + COc1c(OCCCN2CCOCC2)ccc2c3n(c(=NC(=O)c4cnc(N)nc4)nc12)CCN3
a: 107%

# batch size: 2; output viability, T/C per entry
1. CC(Cn1ccc(-c2ccc(C#N)c(Cl)c2)n1)NC(=O)c1cc(C(C)O)[nH]n1 (stereo unspecified) + CC(Nc1ccc2c(c1)OCCn1cc(N3C(=O)OCC3C(F)F)nc1-2)C(N)=O
2. CC1(C)CCC(Nc2ncc(C(F)(F)F)c(-c3c[nH]c4c(P(C)(C)=O)c(C#N)ccc34)n2)CN1 (stereo unspecified) + CC(Nc1ccc2c(c1)OCCn1cc(N3C(=O)OCC3C(F)F)nc1-2)C(N)=O

a:
["111%", "108%"]

* * *

System: K98450-129-R-PDC multicell spheroids, viability
Test: Anticancer human tumor K98450-129-R-PDC cell line growth inhibition [PI3K];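 further: spheroids exposed to agents for seven days before read-out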
Details: curve of first compound; second compound 1 µM
Answer each item with its documented pIC50.
One number for each entry, as −log10 of the molar value.

q: Provide measured pIC50 value, entry: CC(C)n1nc(-c2ccc3oc(N)nc3c2)c2c(N)ncnc21 + COc1c(OCCCN2CCOCC2)ccc2c3n(c(=NC(=O)c4cnc(N)nc4)nc12)CCN3
a: 7.29

Next:
q: Provide measured pIC50 value, entry: CCCS(=O)(=O)Nc1ccc(F)c(C(=O)c2c[nH]c3ncc(-c4ccc(Cl)cc4)cc23)c1F + Cc1nc(NC(=O)N2CCCC2C(N)=O)sc1-c1ccnc(C(C)(C)C(F)(F)F)c1
a: 5.24

* * *

System: K98450-129-R-PDC multicell spheroids, viability
Test: Anticancer human tumor K98450-129-R-PDC cell line growth inhibition [PI3K];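 further: spheroids exposed to agents for seven days before read-out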
Conditions: second compound 0.00316 µM; first compound 0.0316 µM; stronger effect = lower value
Text: Combinatorial screen of targeted agents with the PI3K inhibitors inavolisib, alpelisib, duvelisib, and copanlisib in multi-cell type tumor spheroids A high-throughput screen of multi-cell type tumor spheroids was designed to identify active combinations of targeted small molecules and PI3K pathway inhibitors. […] Compounds. […] If the clinical Cmax for an agent had not been determined, the highest concentration tested was 10 microM. […]
Property label: viability, T/C (%)
Give bare numbers, in %.

q: Provide measured viability, T/C value, entry: CC1(C)CCC(CN2CCN(c3ccc(C(=O)NS(=O)(=O)c4ccc(NCC5CCOCC5)c([N+](=O)[O-])c4)c(Oc4cnc5[nH]ccc5c4)c3)CC2)=C(c2ccc(Cl)cc2)C1 + CC(Nc1ccc2c(c1)OCCn1cc(N3C(=O)OCC3C(F)F)nc1-2)C(N)=O
a: 105

Read the next record carefully.
q: Provide measured viability, T/C value, entry: CC1(C)CCC(Nc2ncc(C(F)(F)F)c(-c3c[nH]c4c(P(C)(C)=O)c(C#N)ccc34)n2)CN1 (configuration not stated) + COc1c(OCCCN2CCOCC2)ccc2c3n(c(=NC(=O)c4cnc(N)nc4)nc12)CCN3
a: 104

* * *

Answer each item with its documented viability, T/C.
Tested on: K98450-129-R-PDC multicell spheroids, viability
Assay: Anticancer human tumor K98450-129-R-PDC cell line growth inhibition [PI3K];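 further: spheroids exposed to agents for seven days before read-out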
Conditions: second compound 0.01 µM; first compound 1 µM; stronger effect = lower value
Answers are plain numbers, in %.

Worked set:
q: Provide measured viability, T/C value, entry: Cn1nccc1Nc1nccc(-c2ccn(C(CO)c3ccc(Cl)c(F)c3)c(=O)c2)n1 (stereo not drawn) + COc1c(OCCCN2CCOCC2)ccc2c3n(c(=NC(=O)c4cnc(N)nc4)nc12)CCN3
a: 79.9

q: Provide measured viability, T/C value, entry: CC(C)NCC(C(=O)N1CCN(c2ncnc3c2C(C)CC3O)CC1)c1ccc(Cl)cc1 (stereo not drawn) + CC(Nc1ccc2c(c1)OCCn1cc(N3C(=O)OCC3C(F)F)nc1-2)C(N)=O
a: 98.1

q: Provide measured viability, T/C value, entry: C=CC(=O)N1CCN(c2nc(=O)n(-c3c(C)ccnc3C(C)C)c3nc(-c4c(O)cccc4F)c(F)cc23)C(C)C1 (stereo not drawn) + CC(Nc1ccc2c(c1)OCCn1cc(N3C(=O)OCC3C(F)F)nc1-2)C(N)=O
a: 83.8

q: Provide measured viability, T/C value, entry: CNC(=O)c1ccc(N2C(=S)N(c3ccc(C#N)c(C(F)(F)F)c3)C(=O)C2(C)C)cc1F + COc1c(OCCCN2CCOCC2)ccc2c3n(c(=NC(=O)c4cnc(N)nc4)nc12)CCN3
a: 77.8

q: Provide measured viability, T/C value, entry: CCCS(=O)(=O)Nc1ccc(F)c(C(=O)c2c[nH]c3ncc(-c4ccc(Cl)cc4)cc23)c1F + CC(Nc1ccc2c(c1)OCCn1cc(N3C(=O)OCC3C(F)F)nc1-2)C(N)=O
a: 105

# batch size: 3; output viability, T/C per entry
1. Cn1ncc(Cl)c1-c1cc(C(=O)NC(CN)Cc2cccc(F)c2)sc1Cl (stereo not drawn) + CC(Nc1ccc2c(c1)OCCn1cc(N3C(=O)OCC3C(F)F)nc1-2)C(N)=O
2. CC1(C)CCC(Nc2ncc(C(F)(F)F)c(-c3c[nH]c4c(P(C)(C)=O)c(C#N)ccc34)n2)CN1 (stereo not drawn) + COc1c(OCCCN2CCOCC2)ccc2c3n(c(=NC(=O)c4cnc(N)nc4)nc12)CCN3
3. CCN1CCN(Cc2ccc(Nc3ncc(F)c(-c4cc(F)c5nc(C)n(C(C)C)c5c4)n3)nc2)CC1 + COc1c(OCCCN2CCOCC2)ccc2c3n(c(=NC(=O)c4cnc(N)nc4)nc12)CCN3

a:
95.9
61.6
75.8

# batch size: 5; output viability, T/C per entry
1. C[C@@H](NC(=O)c1ncnc(N)c1Cl)c1ncc(C(=O)Nc2cc(C(F)(F)F)c(Cl)cn2)s1 + CC(Nc1ccc2c(c1)OCCn1cc(N3C(=O)OCC3C(F)F)nc1-2)C(N)=O
2. C[C@@H](NC(=O)c1ncnc(N)c1Cl)c1ncc(C(=O)Nc2cc(C(F)(F)F)c(Cl)cn2)s1 + COc1c(OCCCN2CCOCC2)ccc2c3n(c(=NC(=O)c4cnc(N)nc4)nc12)CCN3
3. CNC(=O)c1ccc(N2C(=S)N(c3ccc(C#N)c(C(F)(F)F)c3)C(=O)C2(C)C)cc1F + CC(Nc1ccc2c(c1)OCCn1cc(N3C(=O)OCC3C(F)F)nc1-2)C(N)=O
4. CC1(C)CCC(Nc2ncc(C(F)(F)F)c(-c3c[nH]c4c(P(C)(C)=O)c(C#N)ccc34)n2)CN1 (stereo not drawn) + CC(Nc1ccc2c(c1)OCCn1cc(N3C(=O)OCC3C(F)F)nc1-2)C(N)=O
5. CC(C)NCC(C(=O)N1CCN(c2ncnc3c2C(C)CC3O)CC1)c1ccc(Cl)cc1 (stereo not drawn) + COc1c(OCCCN2CCOCC2)ccc2c3n(c(=NC(=O)c4cnc(N)nc4)nc12)CCN3

a:
1. 115
2. 108
3. 101
4. 68.9
5. 98.8

* * *

System: K98450-129-R-PDC multicell spheroids, viability
Assay: Anticancer human tumor K98450-129-R-PDC cell line growth inhibition [PI3K];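 further: spheroids exposed to agents for seven days before read-out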
Details: second compound 0.1 µM; first compound 3.16 µM; stronger effect = lower value
Property label: viability, T/C (%)
Answers are plain numbers, in %.

Worked set:
q: Provide measured viability, T/C value, entry: CC1(C)CCC(CN2CCN(c3ccc(C(=O)NS(=O)(=O)c4ccc(NCC5CCOCC5)c([N+](=O)[O-])c4)c(Oc4cnc5[nH]ccc5c4)c3)CC2)=C(c2ccc(Cl)cc2)C1 + CC(Nc1ncnc2nc[nH]c12)c1cc2cccc(Cl)c2c(=O)n1-c1ccccc1
a: 97.4

q: Provide measured viability, T/C value, entry: Cn1nccc1Nc1nccc(-c2ccn(C(CO)c3ccc(Cl)c(F)c3)c(=O)c2)n1 (stereo not drawn) + Cc1nc(NC(=O)N2CCCC2C(N)=O)sc1-c1ccnc(C(C)(C)C(F)(F)F)c1
a: 96.7

Read the next record carefully.
q: Provide measured viability, T/C value, entry: Cn1nccc1Nc1nccc(-c2ccn(C(CO)c3ccc(Cl)c(F)c3)c(=O)c2)n1 (stereo not drawn) + COc1c(OCCCN2CCOCC2)ccc2c3n(c(=NC(=O)c4cnc(N)nc4)nc12)CCN3
a: 70.2
